Where do the numbers come from? From patent US11352350B2.

DC50 by entry:
Target Entity: IRAK4 (Homo sapiens (Human), UniProt Q9NWZ3)
Sequence (Q9NWZ3 whole entry): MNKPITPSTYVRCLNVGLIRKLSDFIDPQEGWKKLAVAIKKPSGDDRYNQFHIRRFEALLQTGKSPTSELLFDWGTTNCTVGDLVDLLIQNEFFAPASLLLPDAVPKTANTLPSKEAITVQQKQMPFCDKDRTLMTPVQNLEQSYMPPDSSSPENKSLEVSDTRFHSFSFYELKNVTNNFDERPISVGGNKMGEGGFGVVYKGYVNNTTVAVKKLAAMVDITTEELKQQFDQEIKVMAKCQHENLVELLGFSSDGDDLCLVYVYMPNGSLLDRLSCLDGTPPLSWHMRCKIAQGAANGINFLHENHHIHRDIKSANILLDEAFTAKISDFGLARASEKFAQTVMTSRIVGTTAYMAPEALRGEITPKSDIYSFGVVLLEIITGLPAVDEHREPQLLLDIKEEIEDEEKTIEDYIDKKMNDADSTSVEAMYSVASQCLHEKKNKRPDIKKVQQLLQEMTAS
Experiment: IRAK4 degradation in human whole blood lymphocyte - flow cytometry
Format: cell-based
Cond: read-out: IRAK4 degradation in whole blood lymphocyte-Flow cytometry: Average external Abs IC50

{"Compound": "Cn1c(=O)n(C2CCC(=O)NC2=O)c2ccc(CCCN3CCO[C@@H](CNC[C@H]4CC[C@H](n5cc(NC(=O)c6coc(-c7ccnc(NCC8CC8)c7)n6)c(C(F)F)n5)CC4)C3)cc21 (some centres unmarked)", "Target Entity": "IRAK4 (Homo sapiens (Human), UniProt Q9NWZ3)", "DC50": "50 to 100 nM"}
{"Compound": "CN(CCCOCCCc1cccc2c1n(C)c(=O)n2C1CCC(=O)NC1=O)C[C@H]1CC[C@H](n2cc(NC(=O)c3coc(-c4ccnc(NCC5CC5)c4)n3)c(C(F)F)n2)CC1 (mixture of isomers)", "Target Entity": "IRAK4 (Homo sapiens (Human), UniProt Q9NWZ3)", "DC50": "< 50 nM"}

DC50 lookup needed for CN(CCCOCCCc1ccc2c(c1)n(C)c(=O)n2C1CCC(=O)NC1=O)C[C@H]1CC[C@H](n2cc(NC(=O)c3coc(-c4ccnc(NCC5CC5)c4)n3)c(C(F)F)n2)CC1 (some centres unmarked) , thanks. < 50 nM

DC50 lookup needed for Cn1c(=O)n(C2CCC(=O)NC2=O)c2cccc(CCCN3CCO[C@H](CNC[C@H]4CC[C@H](n5cc(NC(=O)c6coc(-c7ccnc(NCC8CC8)c7)n6)c(C(F)F)n5)CC4)C3)c21 (some centres unmarked) , thanks. < 50 nM

DC50 lookup needed for CN(C[C@@H]1CN(CCCc2ccc3c(c2)n(C)c(=O)n3C2CCC(=O)NC2=O)CCO1)C[C@H]1CC[C@H](n2cc(NC(=O)c3coc(-c4ccnc(NCC5CC5)c4)n3)c(C(F)F)n2)CC1 (some centres unmarked) , thanks. < 50 nM

====

Target Entity: IRAK4 (Homo sapiens (Human))
Experiment: hPBMC IRAK4 degradation flow assay
Type: cell-based
Cond: hPBMC monocyte, 20 hr, flow assay; read-out: IRAK4 degradation in hPBMC monocyte at 20 hr: Average external Abs DC50
Reported Property: DC50

{"Compound": "CC[C@@H]1[C@H](F)C(=O)N[C@@H]1COc1ncc(C#C[C@H]2CC[C@H](CN(C)CCCOCCCc3ccc4c(c3)n(C)c(=O)n4C3CCC(=O)NC3=O)CC2)c2cc(C(N)=O)c(OC)cc12 (some centres unmarked)", "DC50": "< 10 nM"}
{"Compound": "Cn1c(=O)n(C2CCC(=O)NC2=O)c2cccc(CCCC3CCN(Cc4ccc(C5N=C(NC(=O)c6cnn7ccc(N8C[C@H]9C[C@@H]8CO9)nc67)C(C(F)F)=N5)cc4)CC3)c21 (some centres unmarked)", "DC50": "< 10 nM"}
{"Compound": "Cn1c(=O)n(C2CCC(=O)NC2=O)c2cccc(CCCN3CCOC4(CCN(C(=O)c5ccc(-n6cc(NC(=O)c7cnn8ccc(N9C[C@H]%10C[C@@H]9CO%10)nc78)c(C(F)F)n6)cc5)CC4)C3)c21 (some centres unmarked)", "DC50": "< 10 nM"}
{"Compound": "CN(C[C@H]1CC[C@H](n2cc3cc(NC(=O)c4cccc(C(F)(F)F)n4)c(C(C)(C)O)cc3n2)CC1)C1CCN(Cc2cccc3c2n(C)c(=O)n3C2CCC(=O)NC2=O)CC1 (some centres unmarked)", "DC50": "< 10 nM"}
{"Compound": "Cn1c(=O)n([C@H]2CCC(=O)NC2=O)c2cccc(CCCOC3CCN(CC4CCC(n5cc(NC(=O)c6cnn7ccc(N8CCOCC8)nc67)c(C(F)F)n5)CC4)CC3)c21 (some centres unmarked)", "DC50": "< 10 nM"}

Moving on to the next compound.
What reported DC50 corresponds to Cn1c(=O)n(C2CCC(=O)NC2=O)c2cccc(CN3CC4(CCN(C(=O)[C@H]5CC[C@H](n6cc(NC(=O)c7cnn8ccc(N9C[C@H]%10C[C@@H]9CO%10)nc78)c(C(F)F)n6)CC5)CC4)C3)c21 (some centres unmarked) on IRAK4 (Homo sapiens (Human))? < 10 nM
